Study System: T1, recombinant human N-terminal CCR6 Fc (human)
T1 construct: also called human CCR6-Fc; hsCCR6-Nter-Fc
Protocol Text: SPR, human CCR6 N-terminal Fc fusion coupled on the sensor chip, FAB as analyte
Measurement Name: Kd (nM)
Give the value, in units of nM, as a plain number.

// field: Kd; key: VH5/VL1-G8-G29A FAB (Fab, V domains shown) VH: EVQLVESGGGLVQPGGSLRLSCAASGFSFSDYYMYWVRQAPGKGLEWVSYITNGGITYYPDSVKGRFTISRDNSKNTLYLQMNSLRAEDTAVYYCTSPLRGAWFAYWGQGTLVTVSS VL: DVVMTQSPLSLPVTLGQPASISCRSSQSIVHSNANTYLEWYQQRPGQSPRLLIYKVSNRFSGVPDRFSGSGSGTDFTLKISRVEAEDVGVYYCFQGTYLPLTFGQGTKLEIK ; value = 1
